- target.under.test: UniProtKB P30411
- Sequence (P30411 whole entry): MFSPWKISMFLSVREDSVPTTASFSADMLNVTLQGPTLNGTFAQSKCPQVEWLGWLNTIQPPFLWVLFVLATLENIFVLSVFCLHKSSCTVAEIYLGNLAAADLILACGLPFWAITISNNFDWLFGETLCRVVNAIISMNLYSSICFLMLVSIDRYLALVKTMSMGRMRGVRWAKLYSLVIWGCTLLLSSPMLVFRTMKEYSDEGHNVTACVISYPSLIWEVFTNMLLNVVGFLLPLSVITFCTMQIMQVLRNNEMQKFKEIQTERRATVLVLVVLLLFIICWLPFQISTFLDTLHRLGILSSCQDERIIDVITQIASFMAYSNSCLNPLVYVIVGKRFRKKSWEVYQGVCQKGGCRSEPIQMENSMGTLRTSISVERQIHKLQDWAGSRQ
- Type: cell membranes, Membrane
- protocol.conditions: chem-1; note: in other assays of this panel Not Active means under 50% inhibition at 10 µM
property.measured: IC50

Completed entries (count: 6):
• CNNCc1ccc(C(=O)NC(C)C)cc1 [PROCARBAZINE] = Not Active
• Nc1c2c(nc3ccccc13)CCCC2 [TACRINE] = Not Active
• Cc1nc2n(c(=O)c1CCN1CCC(c3noc4cc(F)ccc34)CC1)CCCC2 [RISPERIDONE] = Not Active
• CC1=C2C(=CO[C@H](C)[C@H]2C)C(O)=C(C(=O)O)C1=O [CITRININ] = Not Active
• C[C@]12CC[C@@H]3c4ccc(O)cc4CC[C@H]3[C@@H]1CCC2=O [ESTRONE] = Not Active
• CC1Cc2ccccc2N1NC(=O)c1ccc(Cl)c(S(N)(=O)=O)c1 (stereo not drawn) [INDAPAMIDE] = Not Active

Would you please give the reported IC50 of Cc1onc(O)c1CC(N)C(=O)O (racemic) [(R,S)-AMPA] with UniProtKB P30411?
Not Active

For UniProtKB P30411, give IC50 of the listed compound: C[C@]12CCC(=O)C=C1CC[C@@H]1[C@@H]2CC[C@@]2(C)[C@H]1CC[C@]2(C)O [METHYLTESTOSTERONE]
Not Active

Under UniProtKB P30411, report IC50 for CC(=O)O[C@@]12CO[C@@H]1C[C@H](O)[C@@]1(C)C(=O)[C@H](O)C3=C(C)[C@@H](OC(=O)[C@H](O)[C@@H](NC(=O)OC(C)(C)C)c4ccccc4)C[C@@](O)([C@@H](OC(=O)c4ccccc4)[C@H]21)C3(C)C.O.O.O [DOCETAXEL]
Not Active

Please tell me the measured IC50 for Cc1cccc(N(C)C(=S)Oc2ccc3ccccc3c2)c1 [TOLNAFTATE] ; system: UniProtKB P30411.
Not Active

Under UniProtKB P30411: report IC50 of Cc1cc(C(C#N)c2ccc(Cl)cc2)c(Cl)cc1NC(=O)c1cc(I)cc(I)c1O (stereo not drawn) [CLOSANTEL] .
Not Active

Jot down IC50 (UniProtKB P30411) of CCCN1C[C@H](CSC)C[C@@H]2c3cccc4[nH]cc(c34)C[C@H]21 [PERGOLIDE] .
Not Active

Please indicate recorded IC50 of N[C@@H](Cc1ccc(O)c(O)c1)C(=O)O [LEVODOPA] measured with UniProtKB P30411.
Not Active

* * *

- target.under.test: Glycine receptor (Rattus norvegicus, UniProt P22771+P24524+P07727+P20781); note: in other assays of this panel Not Active means under 50% inhibition at 10 µM
- Assay type: cell membranes, Wistar, Spinal cord, Membrane
property.measured: IC50

* CC(NC(C)(C)C)C(=O)c1cccc(Cl)c1 (stereo not drawn) | Not Active
* CC[C@@]1(O)C[C@H](O[C@H]2C[C@H](N(C)C)[C@H](O[C@H]3C[C@H](O)[C@H](O[C@H]4CCC(=O)[C@H](C)O4)[C@H](C)O3)[C@H](C)O2)c2c(cc3c(c2O)C(=O)c2c(O)cccc2C3=O)[C@H]1C(=O)OC | Not Active
* O=c1ncn2nc(Sc3ccc(F)cc3F)ccc2c1-c1c(Cl)cccc1Cl | Not Active

* * *

- target.under.test: UniProt:P08172
- Sequence (P08172 whole entry): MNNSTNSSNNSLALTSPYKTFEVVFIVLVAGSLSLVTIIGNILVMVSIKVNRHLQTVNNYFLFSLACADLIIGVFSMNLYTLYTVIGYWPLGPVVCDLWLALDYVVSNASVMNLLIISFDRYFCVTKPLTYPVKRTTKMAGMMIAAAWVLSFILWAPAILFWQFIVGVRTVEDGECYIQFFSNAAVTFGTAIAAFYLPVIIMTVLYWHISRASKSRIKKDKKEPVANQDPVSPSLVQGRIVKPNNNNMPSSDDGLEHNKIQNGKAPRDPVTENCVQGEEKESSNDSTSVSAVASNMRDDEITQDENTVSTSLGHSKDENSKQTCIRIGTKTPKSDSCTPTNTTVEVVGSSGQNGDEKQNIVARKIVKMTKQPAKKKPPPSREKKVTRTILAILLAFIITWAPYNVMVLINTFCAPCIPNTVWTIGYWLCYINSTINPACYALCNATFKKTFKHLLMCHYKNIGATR
- Type: cell membranes, CHO-K1, Membrane
- protocol.conditions: cho-k1
*1 amine or outer side, *2 acyl side, *3 side chain or, on linkers, in order; H or OH if unused. Where a SMILES comes first, the peptide text is derived from it. Bridges are numbered along the chain shown (N, C = ends). Roman numbers before positions name the chains, in order. [ ]: non-standard residue; d: D form. Actinocin(1to9) = Cc1c2oc3c(C)ccc(C(=O)[*:2])c3nc-2c(C(=O)[*:1])c(N)c1=O; NMeV = CN[C@H](C(=O)O)C(C)C; Sar = CNCC(=O)O
property.measured: IC50

• O=c1oc2ccccc2c(O)c1Cc1c(O)c2ccccc2oc1=O [DICUMAROL] = Not Active
• Cc1c2oc3c(C)ccc(C(=O)N[C@@H]4C(=O)N[C@H](C(C)C)C(=O)N5CCC[C@H]5C(=O)N(C)CC(=O)N(C)[C@@H](C(C)C)C(=O)O[C@@H]4C)c3nc-2c(C(=O)N[C@@H]2C(=O)N[C@H](C(C)C)C(=O)N3CCC[C@H]3C(=O)N(C)CC(=O)N(C)[C@@H](C(C)C)C(=O)O[C@@H]2C)c(N)c1=O [DACTINOMYCIN] (I: T[dV]P[Sar][NMeV] / II: T[dV]P[Sar][NMeV]; ester I:1-I:C, II:1-II:C; linker I:N-II:N via Actinocin(1to9)) = Not Active

This collection of values is drawn from ChEMBL document CHEMBL1909046.
